Record form. Attribute: Agonist activity (EC50, M). Fill in for each entry.
# targetUnderTest: T1, human GIPR (human), P48546
# T1 chain: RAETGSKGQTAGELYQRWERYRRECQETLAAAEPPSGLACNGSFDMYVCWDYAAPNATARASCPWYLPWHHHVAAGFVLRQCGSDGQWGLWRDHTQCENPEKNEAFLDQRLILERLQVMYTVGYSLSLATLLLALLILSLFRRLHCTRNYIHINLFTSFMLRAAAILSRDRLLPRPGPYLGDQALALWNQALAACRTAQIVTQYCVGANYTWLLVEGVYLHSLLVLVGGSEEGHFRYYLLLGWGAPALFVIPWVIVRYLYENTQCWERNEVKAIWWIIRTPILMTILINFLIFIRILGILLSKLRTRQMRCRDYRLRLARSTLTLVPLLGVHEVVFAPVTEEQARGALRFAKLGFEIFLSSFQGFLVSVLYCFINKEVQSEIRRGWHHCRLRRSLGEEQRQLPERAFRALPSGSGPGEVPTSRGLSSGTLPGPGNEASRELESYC
Non-standard residues stand in square brackets, D forms with d. Groups on a side chain read outwards from the residue. Primed or numbered codes have the meaning given here. No end group written: not given here. *: point of attachment. C20 diacid = O=C(O)CCCCCCCCCCCCCCCCCCC(=O)*; NMeY = CN[C@@H](Cc1ccc(O)cc1)C(=O)O; αMeF = C[C@](N)(Cc1ccccc1)C(=O)O; Myristoyl = CCCCCCCCCCCCCC(=O)*; Lauroyl = CCCCCCCCCCCC(=O)*; Iva = CC[C@](C)(N)C(=O)O; PEG2′ = not defined here; PEG4′ = not defined here; Aib = CC(C)(N)C(=O)O
Answer with a number only, understood to be in M.

Inquiry: Entry under review: Y[Aib]EGTFISDYSK([PEG2′-Myristoyl])ALDRIAQQDFVNWLLAQRPSSGAPPPSR (ends and bridges not checked) [Compound 186] . Reported Agonist activity (EC50, M)?
Reply text: 6.4e-12

Inquiry: Repeat with [NMeY][Aib]EGTFISDYSIALDRIAQ[Aib]NFVNW[Iva]LAQRPSSGAPPPSR (not fully specified (C-terminus); ends and bridges not checked) [Compound 68]
Reply text: 1.7e-12

Inquiry: Repeat with Y[Aib]EGTFISDYSK([PEG2′-Lauroyl])ALDR[Aib]AQ[Aib]NFVNW[Iva]LAQRPSSGAPPPS (not fully specified (C-terminus); ends and bridges not checked) [Compound 211]
Reply text: 3.4e-12

Inquiry: Repeat with [NMeY][Aib]EGTFISDYSIALDRIAQQSFVNWLLAQRPSSGAPPPSR (ends and bridges not checked) [Compound 60]
Reply text: 1.1e-12

Inquiry: Repeat with Y[Aib]EGTFISDYSIAK([PEG(2)-C20 diacid])DRIAQQNFVNW[Iva]LAQR (ends and bridges not checked) [Compound 389]
Reply text: 8e-11

Inquiry: Repeat with Y[Aib]EGTFISDYSK([PEG(2)-Lauroyl])ALDRIAQQDFVN[αMeF]LLAQRPSSGAPPPSR (ends and bridges not checked) [Compound 194]
Reply text: 3.5e-12

Inquiry: Repeat with Y[Aib]EGTVVSLYSI[Aib]LDKQAQ[Aib]EFVKWLLKGK([PEG(2)-Pal]) (ends and bridges not checked) [Compound 162]
Reply text: 2.7e-10

Inquiry: Repeat with Y[Aib]EGTFISDYSIALDRK([PEG(2)-Pal])HQ[Aib]NFVNW[Iva]LAQRPSSGAPPPS (not fully specified (C-terminus); ends and bridges not checked) [Compound 240]
Reply text: 3e-12

Inquiry: Repeat with Y[Aib]EGTFISDYSK([PEG4′-Lauroyl])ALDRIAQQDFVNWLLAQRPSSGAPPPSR (ends and bridges not checked) [Compound 189]
Reply text: 6.8e-12

These measurements were taken from patent US20180298070A1.
